These entries and their values trace back to patent US4340725A.

Assay: acute toxicity
Conditions: mouse, in vivo, ip; mice, intraperitoneally
Procedure: The acute toxicity (LD50) of DC-38-V is >1000 mg/kg when the test compound is administered intraperitoneally to mice.
RESULT_TYPE: LD50

Hello, please tell me recorded LD50 for this one: C=Cc1cc(OC)c2c(c1)c(=O)oc1c2cc(OC)c2c(O)ccc(C3OC(C(C)O)C(O)C3O)c21 (stereo not shown)
> 1000 mg/kg
